System: PhgR/P_H16_RS05530 phenylglyoxylate biosensor (pEH155);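 further: RFP excited at 585 nm with emission read at 620 nm, culture medium blanks subtracted from fluorescence and absorbance prior to normalisation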
test protocol: relative induction of RFP reporter vs primary effector (background-corrected); higher = stronger activation of the biosensor
protocol conditions: inducer concentration 5 mM; 6 h; Cupriavidus necator H16; minimal medium + 0.4% gluconate
metric: relative induction of RFP reporter (%)
# unit: % | format: bare number

Example entries begin here.
>  <compound>
NCC(N)C(=O)O (configuration not stated) [2,3-diaminopropanoate]

>  <quantitative readout>
-0.221

$$$$
>  <compound>
NCC(=O)O

>  <quantitative readout>
-0.415

$$$$
>  <compound>
O=C(O)/C=C/C(=O)O [fumarate]

>  <quantitative readout>
-0.207

$$$$
>  <compound>
OC[C@@H](O)[C@@H](O)[C@H](O)[C@H](O)CO

>  <quantitative readout>
-0.267

$$$$
>  <compound>
CCC(=O)O [propanoate]

>  <quantitative readout>
-0.224

$$$$
>  <compound>
Oc1ccccc1

>  <quantitative readout>
-0.147

$$$$
>  <compound>
Oc1ccc(O)cc1 [hydroquinone]

>  <quantitative readout>
1.56

$$$$
>  <compound>
N[C@@H](Cc1c[nH]c2ccccc12)C(=O)O

>  <quantitative readout>
-0.235

$$$$

response.value for `Oc1cccc(O)c1` (field: relative induction of RFP reporter) = 0.115
